# Tested on: U2OS
# Experiment: Multiplex assay against U2OS
# Type: toxicity, cell-based
# Assay context: human, 24 h, 1 µM, compound concentration 1 uM, replicate 1
Listed below: Population Tubulin-Different-Phenotype (%) values for each entry.

Some entries whose results are on file:
[
  {
    "Compound": "C[C@@H]1C[C@H]2[C@@H]3CCC4=CC(=O)C=C[C@]4(C)[C@@]3(F)[C@@H](O)C[C@]2(C)[C@@]1(O)C(=O)CO",
    "Value observed": "2%"
  },
  {
    "Compound": "O=C1COc2nccc(-c3ccccc3F)c2CN1Cc1cc(C(F)(F)F)cc(C(F)(F)F)c1",
    "Value observed": "3%"
  }
]

// field: Population Tubulin-Different-Phenotype (%); key: Oc1c(CN2CCN(c3ccccn3)CC2)cc(Cl)c2cccnc12 ; value = 2%

// field: Population Tubulin-Different-Phenotype (%); key: C[C@H]1[C@H]2CC[C@H]3[C@@H]4CC=C5C[C@@H](N(C)C)CC[C@]5(C)[C@H]4CC[C@]23CN1C ; value = 3%

// field: Population Tubulin-Different-Phenotype (%); key: COc1cc(NC(=O)CCN2CCC(OC(=O)Nc3ccccc3-c3ccccc3)CC2)c(Cl)cc1CNC[C@H](O)c1ccc(O)c2[nH]c(=O)ccc12 ; value = 5%

// field: Population Tubulin-Different-Phenotype (%); key: CN1CCN2c3ncccc3Cc3ccccc3C2C1 (stereo not drawn) ; value = 2%

// field: Population Tubulin-Different-Phenotype (%); key: O=C(NCC(=O)N1CC[C@H](N[C@H]2CC[C@@](O)(c3ccc(-c4ncccn4)cn3)CC2)C1)c1cccc(C(F)(F)F)c1 ; value = 2%

// field: Population Tubulin-Different-Phenotype (%); key: N#Cc1c(N)nc(SCc2csc(-c3ccc(Cl)cc3)n2)c(C#N)c1-c1ccc(OCCO)cc1 ; value = 6%

* * *

# Test system: HEK-293T
# Experiment: Multiplex assay against HEK293T
# Format: toxicity, cell-based
# Assay context: human, 24 h, 10 µM, compound concentration 10 uM, replicate 1
Experimental readout: Population Membrane Permeable-Phenotype (%)
Be sure to follow the number with its unit.

Assay HEK-293T, sample CSc1ccccc1N1CCN(CCCCCC(=O)NC2CCCc3ccccc32)CC1.Cl (configuration not stated) , Population Membrane Permeable-Phenotype (%) read: 0%

* * *

# System: HEK-293T
# Experiment: Multiplex assay against HEK293T
# Type: toxicity, cell-based
# Assay context: human, 48 h, 10 µM, compound concentration 10 uM, replicate 1
Listed below: Population Healthy Nuclei (%) values for each entry.
Give your result in % as a bare value.

Some entries whose results are on file:
[
  {
    "Smiles repr": "N#Cc1c(N)nc(SCc2csc(-c3ccc(Cl)cc3)n2)c(C#N)c1-c1ccc(OCCO)cc1",
    "Experimental readout": "Population Healthy Nuclei (%)",
    "Value observed": 68
  },
  {
    "Smiles repr": "Oc1c(CN2CCN(c3ccccn3)CC2)cc(Cl)c2cccnc12",
    "Experimental readout": "Population Healthy Nuclei (%)",
    "Value observed": 44
  },
  {
    "Smiles repr": "CC[C@H]1OC(=O)[C@H](C)[C@@H](O[C@H]2C[C@@](C)(OC)[C@@H](O)[C@H](C)O2)[C@H](C)[C@@H](O[C@@H]2O[C@H](C)C[C@H](N(C)C)[C@H]2O)[C@@]2(C)CC(C)=C(O2)[C@H](C)[C@@H](O)[C@]1(C)O",
    "Experimental readout": "Population Healthy Nuclei (%)",
    "Value observed": 74
  },
  {
    "Smiles repr": "c1cc(OCCCN2CCCCC2)ccc1CN1CCCCC1",
    "Experimental readout": "Population Healthy Nuclei (%)",
    "Value observed": 77
  },
  {
    "Smiles repr": "CC1(COc2ccc3c(c2)ncn3-c2ccc3cccc(N4CCC(N)CC4)c3n2)COC1",
    "Experimental readout": "Population Healthy Nuclei (%)",
    "Value observed": 17
  },
  {
    "Smiles repr": "O=C(NCC(=O)N1CC[C@H](N[C@H]2CC[C@@](O)(c3ccc(-c4ncccn4)cn3)CC2)C1)c1cccc(C(F)(F)F)c1",
    "Experimental readout": "Population Healthy Nuclei (%)",
    "Value observed": 75
  }
]

// field: Population Healthy Nuclei (%); key: C[C@H](NC(=O)c1c(C(F)F)nn(C)c1Oc1cccc(C(F)(F)F)c1)c1ccc(C(=O)O)cc1 ; value = 75

// field: Population Healthy Nuclei (%); key: O=C(O)c1cc2ccccc2c(Cc2c(O)c(C(=O)O)cc3ccccc23)c1O ; value = 79

* * *

# Tested on: HEK-293T
# Experiment: Multiplex assay against HEK293T
# Type: toxicity, cell-based
# Assay context: human, 12 h, 10 µM, compound concentration 10 uM, replicate 1
Experimental readout: Population Apoptotic (%)
Give your result in % as a bare value.

Some entries whose results are on file:
[
  {
    "Compound": "CSc1ccccc1N1CCN(CCCCCC(=O)NC2CCCc3ccccc32)CC1.Cl (stereo not drawn)",
    "Units text": "%",
    "Value observed": 80
  },
  {
    "Compound": "C[C@H](NC(=O)c1c(C(F)F)nn(C)c1Oc1cccc(C(F)(F)F)c1)c1ccc(C(=O)O)cc1 [PALUPIPRANT]",
    "Units text": "%",
    "Value observed": 38
  },
  {
    "Compound": "COc1cc(NC(=O)CCN2CCC(OC(=O)Nc3ccccc3-c3ccccc3)CC2)c(Cl)cc1CNC[C@H](O)c1ccc(O)c2[nH]c(=O)ccc12 [BATEFENTEROL]",
    "Units text": "%",
    "Value observed": 100
  },
  {
    "Compound": "CN1CCN(c2nc3cc(C(F)(F)F)ccc3n3cccc23)CC1.O=C(O)/C=C\\C(=O)O.O=C(O)/C=C\\C(=O)O",
    "Units text": "%",
    "Value observed": 68
  },
  {
    "Compound": "Cc1ccc(-c2ccc(F)cc2COc2ccc(CCC(=O)O)cc2)cc1",
    "Units text": "%",
    "Value observed": 32
  },
  {
    "Compound": "O=C(NCC(=O)N1CC[C@H](N[C@H]2CC[C@@](O)(c3ccc(-c4ncccn4)cn3)CC2)C1)c1cccc(C(F)(F)F)c1 [PF-4136309]",
    "Units text": "%",
    "Value observed": 39
  },
  {
    "Compound": "O=C(O)Cc1ccccc1Nc1c(Cl)cccc1Cl [DICLOFENAC]",
    "Units text": "%",
    "Value observed": 30
  }
]

// field: Population Apoptotic (%); key: N[C@@]1(C(=O)O)CO[C@H]2[C@H](C(=O)O)[C@H]21 [LY-379268] ; value = 27

* * *

# Test system: HEK-293T
# Experiment: Multiplex assay against HEK293T
# Type: toxicity, cell-based
# Assay context: human, 48 h, 1 µM, compound concentration 1 uM, replicate 1
Listed below: Population Pyknosed Nuclei (%) values for each entry.
Give your result in % as a bare value.

[
  {
    "Molecule": "C[C@H](NC(=O)c1c(C(F)F)nn(C)c1Oc1cccc(C(F)(F)F)c1)c1ccc(C(=O)O)cc1 [PALUPIPRANT]",
    "Population Pyknosed Nuclei (%)": 7
  },
  {
    "Molecule": "O=C1COc2nccc(-c3ccccc3F)c2CN1Cc1cc(C(F)(F)F)cc(C(F)(F)F)c1",
    "Population Pyknosed Nuclei (%)": 6
  },
  {
    "Molecule": "CCCn1c(=O)c2[nH]c(C3CCCC3)nc2n(CCC)c1=O",
    "Population Pyknosed Nuclei (%)": 7
  }
]

// switching to the query molecule
// field: Population Pyknosed Nuclei (%); key: O=C(O)Cc1ccccc1Nc1c(Cl)cccc1Cl [DICLOFENAC] ; value = 6

* * *

# Test system: Fibroblast
# Experiment: Multiplex assay against human fibroblast
# Format: toxicity, cell-based
# Assay context: 48 h, 1 µM, compound concentration 1 uM, replicate 2
Listed below: Population Hoechst High Intensity Objects (%) values for each entry.
Be sure to follow the number with its unit.

[
  {
    "Compound": "O=S(=O)(c1ccccc1)c1cnc2c(N3CCNCC3)cccc2c1 [INTEPIRDINE]",
    "Value observed": "3%"
  },
  {
    "Compound": "Cl.Clc1ccc2nsnc2c1NC1=NCCN1 [TIZANIDINE HYDROCHLORIDE]",
    "Value observed": "6%"
  }
]

// field: Population Hoechst High Intensity Objects (%); key: Cc1ccc(F)cc1C(=O)Nc1ccc(C(=O)N2Cc3cccn3Cc3ccccc32)c(Cl)c1 [LIXIVAPTAN] ; value = 0%

// field: Population Hoechst High Intensity Objects (%); key: CCCN1CCC[C@@H]2Cc3n[nH]cc3C[C@H]21.Cl [QUINPIROLE HYDROCHLORIDE] ; value = 1%

// field: Population Hoechst High Intensity Objects (%); key: CN(C)CCCc1cc(C(=O)Nc2ccc(-c3ccncc3)cc2)ccc1O.Cl.Cl ; value = 8%

Provenance of the data: ChEMBL document CHEMBL5058577
